# Experimental target: recombinant eIF4E (Homo sapiens (Human), UniProt P06730)
# Sequence (P06730 whole entry): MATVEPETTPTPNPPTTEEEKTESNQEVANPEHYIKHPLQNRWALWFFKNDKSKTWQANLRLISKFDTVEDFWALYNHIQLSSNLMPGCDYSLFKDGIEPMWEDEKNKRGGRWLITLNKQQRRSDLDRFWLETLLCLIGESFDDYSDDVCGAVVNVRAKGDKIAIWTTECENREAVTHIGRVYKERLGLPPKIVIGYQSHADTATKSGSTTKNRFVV
# Protocol text: Fluorescence polarization competition assay for eIF4E binding potency
# Settings: fluorescence polarization competition, 75 nM recombinant eIF4E, 20 nM EDA-m7GDP-ATTO-550; IC50 class; read-out: elF4E FP
Consider the following compounds; for each one, report its IC50.

I would be grateful if you could share the reported IC50 for Cc1cc(-c2cc(Cl)ccc2OCCn2c(C)nc3cc(-c4cccnc4)c(C)c(C#N)c3c2=O)c2scc(C(=O)O)c2n1 [compound 759] . 50 to 1000 nM

Also check Cc1nc2cc(OC(F)(F)F)c(C#N)c(C#N)c2c(=O)n1CCOc1ccc(Cl)cc1-c1ccnc2c(C(=O)O)csc12 [compound 543] < 50 nM

Next: CCN(c1ncc2nc(C)n(CC#Cc3ccc(Cl)cc3-c3ccnc4c(C(=O)O)csc34)c(=O)c2c1C#N)C1CCN(CC(C)(F)F)CC1 [compound 1177] < 50 nM

What would you report for Cc1cc(-c2cc(Cl)ccc2OCCn2c(C)nc3cc(CCN(C)C)c(OC(F)F)c(C#N)c3c2=O)c2scc(C(=O)O)c2n1 [compound 607] ? < 50 nM

CCc1cc(-c2cc(Cl)ccc2OCCn2c(C)nc3cnc(C4CC4)c(C#N)c3c2=O)c2scc(C(=O)O)c2n1 [compound 793] , same question. < 50 nM

Now the same for Cc1cnc2c(C(=O)O)csc2c1-c1cc(Cl)ccc1OCCn1c(C)nc2cc(C(F)(F)F)cc(C#N)c2c1=O [compound 495] 50 to 1000 nM

Moving on to Cc1cc(-c2cc(Cl)ccc2OCCn2c(C)nc3ccc(N(C)C)nc3c2=O)c2scc(C(=O)O)c2n1 [compound 679] 50 to 1000 nM

N#Cc1cc2c(=O)n(CCOc3ccc(Cl)cc3-c3cccc4c(C(=O)O)nccc34)cnc2cn1 [compound 118] ? 50 to 1000 nM

Queued: Cc1cc(-c2c(Cl)cc3nc(C)n(CCOc4ccc(Cl)cc4-c4cc(C)nc5c(C(=O)O)csc45)c(=O)c3c2C#N)cc(C)n1 [compound 396] < 50 nM

Ok, now Cc1ccc(-c2nc(C)c3nc(C)n(CCOc4ccc(Cl)cc4-c4cc(C)nc5c(C(=O)O)csc45)c(=O)c3c2C#N)cc1 [compound 477] < 50 nM

Now try CC(=O)c1nc2c(=O)n(CCOc3ccc(Cl)cc3-c3cc(C)nc4c(C(=O)O)csc34)c(C)nc2cc1C(F)(F)F [compound 780] . < 50 nM

// query: Cc1nc2cc(C(F)(F)F)nc(C#N)c2c(=O)n1CCOc1ccc(Cl)cc1-c1cccc(C(=O)O)c1 [compound 154] 50 to 1000 nM

And Cc1nc2cnc(N3CCC4(CC3)CN(CC(C)(F)F)C4)c(C#N)c2c(=O)n1CC#Cc1ccc(Cl)cc1-c1ccnc2c(C(=O)O)csc12 [compound 1137] ? < 50 nM

Would you kindly repeat that for C=Cc1c(C(=O)O)cccc1-c1cc(Cl)ccc1OCCn1c(C)nc2cc(C(F)(F)F)cc(C#N)c2c1=O [compound 169] ? 50 to 1000 nM

Cool, now Cc1nc2cccc(C#N)c2c(=O)n1CCOc1ccc(Cl)cc1-c1cccc(C(=O)O)c1 [compound 1147] < 50 nM

---

# Experimental target: recombinant eIF4E (Homo sapiens (Human))
# Protocol text: Fluorescence polarization competition assay for eIF4E binding potency
# Settings: inhibition of eIF4E/EDA-m7GDP-ATTO-550 binding; calculated IC50 values, Table 4B; read-out: IC50
Parameter: IC50 (nM)
Express it in nM; write the number only.

Which IC50 value is on record for Cc1nc2cnc(N(C)C3CCN(CCOC(F)F)CC3)c(C#N)c2c(=O)n1CC#Cc1ccc(Cl)cc1-c1ccnc2c(C(=O)O)csc12 [compound 1503] ? 19.2

Moving on to the next compound: Cc1nc2cc(OC(F)F)cc(C#N)c2c(=O)n1CCOc1ccc(Cl)cc1-c1ccnc2c(C(=O)O)csc12 [compound 1940] 34.9

Next up: CCN(c1ncc2nc(C)n(CC#Cc3ccc(Cl)cc3-c3ccnc4c(C(=O)NS(=O)(=O)C5CCC5)csc34)c(=O)c2c1C#N)C1CCN(C2COC2)CC1 [compound 1748] 17.5

Record: Cc1nc2cc(C(F)(F)F)c(N3CCN(C)CC3)c(C#N)c2c(=O)n1CCOc1ccc(Cl)cc1-c1ncnc2ccsc12 [compound 1250] 75.8

Also, Cc1nc2cnc(N3CCN(CCC(F)(F)F)CC3)c(C#N)c2c(=O)n1CC#Cc1ccc(Cl)cc1-c1ccnc2c(C(=O)NS(C)(=O)=O)csc12 [compound 1486] please. 10.7

And what about the compound Cc1nc2cnc(N3CCC(N(C)C4CC(F)(F)C4)CC3)c(C#N)c2c(=O)n1CC#Cc1ccc(Cl)cc1-c1ccnc2c(C(=O)O)csc12 [compound 1592] ? 20.3

Subsequent entry: CCN(c1ncc2nc(C)n(CC#Cc3ccc(Cl)cc3-c3ccnc4c(C(=O)NS(=O)(=O)CC(F)(F)F)csc34)c(=O)c2c1C#N)C1CCN(C2COC2)CC1 [compound 1734] 19.4

Next compound up: Cc1nc2cnc(N3CCN(C(C)(C)CCC(F)(F)F)CC3)c(C#N)c2c(=O)n1CCOc1ccc(Cl)cc1-c1ccnc2c(C(=O)O)csc12 [compound 1400] 27.8

How about this compound: N#Cc1cccc2nc(C(F)F)n(CCOc3ccc(Cl)cc3-c3ccnc4c(C(=O)O)scc34)c(=O)c12 [compound 2035] 72.3

Now this one: Cc1nc2cncc(Br)c2c(=O)n1CCOc1ccc(Cl)cc1-c1cccc(C(=O)O)c1 [compound 1999] 482

One more compound: Cc1sc2c(-c3cc(Cl)ccc3OCCn3c(C)nc4cc(C(F)(F)F)c(N5CCN(C)CC5)c(C#N)c4c3=O)ccnc2c1C [compound 1252] 222

Moving on to Cc1nc2cc(C(F)(F)F)c(N3CCN(C)CC3)c(C#N)c2c(=O)n1CCOc1ccc(Cl)cc1-c1ccnc2cnsc12 [compound 1251] 4.77

Subsequent entry: Cc1nc2cnc(N3CCN4CC(F)(F)CC4C3)c(C#N)c2c(=O)n1CCOc1ccc(Cl)cc1-c1ccnc2c(C(=O)O)csc12 (stereo not drawn) [compound 1311] 13.3

Now try Cc1nc2cc(C(F)(F)F)c(C#CCN)c(C#N)c2c(=O)n1CCOc1ccc(Cl)cc1-c1ccnc2c(C(=O)O)csc12 [compound 1260] . 13

---

Answer each item with its documented pIC50.
# Experimental target: recombinant eIF4E (Homo sapiens (Human), UniProt P06730)
# Protocol text: Fluorescence polarization competition assay for eIF4E binding potency
# Settings: fluorescence polarization competition, 75 nM recombinant eIF4E, 20 nM EDA-m7GDP-ATTO-550; IC50 class; read-out: elF4E FP
pIC50: −log10 of the molar value.

Reported pIC50, compound Cc1cc(-c2cc(Cl)ccc2OCCn2c(C)nc3cc(C(F)(F)F)c(-c4cc(F)ccn4)c(C#N)c3c2=O)c2scc(C(=O)O)c2n1 : ____ 6.00 to 7.30

Cool, now Cc1nc2cc(C(F)(F)F)c(N3CCN(C)CC3)nc2c(=O)n1CCOc1ccc(Cl)cc1-c1ccnc2c(C(=O)NS(C)(=O)=O)csc12 > 7.30

Similarly, CCC(F)(F)CN1CCC(N(C)c2ncc3nc(C)n(COCc4ccc(Cl)cc4-c4ccnc5c(C(=O)O)csc45)c(=O)c3c2C#N)CC1 ? > 7.30

// next record Cc1cc(-c2cc(Cl)ccc2OCCn2c(C)nc3cnc(-c4cccc(Cl)c4)c(C#N)c3c2=O)c2scc(C(=O)O)c2n1 > 7.30

Can you handle Cc1nc2cnc(N3CCN(CC4CC4)CC3)c(C#N)c2c(=O)n1CC#Cc1ccc(Cl)cc1-c1ccnc2c(C(=O)O)csc12 next? > 7.30

Now consider COCc1cc(-c2cc(Cl)ccc2OCCn2c(C)nc3cc(C(F)(F)F)c(CN4CCN(C)CC4)c(C#N)c3c2=O)c2scc(C(=O)O)c2n1 and answer again. > 7.30

Next up: O=C(O)c1cccc(-c2cc(Cl)ccc2OCCn2ccc3ccccc3c2=O)c1 < 6.00

Next compound up: Cc1cc(-c2cc(Cl)ccc2OCCn2c(C)nc3c(C(C)C)ncc(C#N)c3c2=O)c2scc(C(=O)O)c2n1 > 7.30

Also, Cc1nc2cc(C(F)(F)F)c(Cl)c(C#N)c2c(=O)n1CC#Cc1ccc(Cl)cc1-c1ccnc2c(C(=O)O)csc12 please. > 7.30

Also check Cc1cc(-c2cc(Cl)ccc2OCCn2c(C)nc3cc(OC(F)F)cc(C#N)c3c2=O)c2scc(C(=O)O)c2n1 > 7.30

Repeat with Cc1cc2c(=O)n(CCOc3ccc(Cl)cc3-c3cccc(C(=O)O)c3)cnc2cn1 6.00 to 7.30

Subsequent entry: N#Cc1cc2c(=O)n(CCOc3ccc(Cl)cc3-c3cc(C(=O)O)c4cc[nH]c4n3)cnc2cn1 < 6.00

Please answer likewise for Cc1cc(-c2cc(Cl)ccc2OCCn2c(C)nc3cc(C(F)(F)F)c(N4CC(C)(O)C4)c(C#N)c3c2=O)c2scc(C(=O)O)c2n1 > 7.30

Again, but for COC(=O)c1csc2c(-c3cc(Cl)ccc3C#CCn3c(C)nc4cnc(N(C)C5CCN(CC(F)(F)F)CC5)c(C#N)c4c3=O)ccnc12 > 7.30

Now consider Cc1cc(-c2cc(Cl)ccc2OCCn2c(C)nc3cnc(-c4cc(F)cnc4C)c(C#N)c3c2=O)c2scc(C(=O)O)c2n1 . > 7.30

Cool, now CNS(=O)(=O)c1cc2c(=O)n(CCOc3ccc(Cl)cc3-c3cccc(C(=O)O)c3)cnc2cn1 6.00 to 7.30

Next up: Cc1cc(-c2cc(Cl)ccc2OCCn2c(C)nc3c(C(F)(F)F)cc(Cl)nc3c2=O)c2scc(C(=O)O)c2n1 6.00 to 7.30

For Cc1cc(-c2cc(Cl)ccc2OCCn2c(C)nc3cc(CF)c(C)c(C#N)c3c2=O)c2scc(C(=O)O)c2n1 then? > 7.30

Let us now turn to Cc1nc2cc(CN(C)C)c(Cl)c(C#N)c2c(=O)n1CCOc1ccc(Cl)cc1-c1ccnc2c(C(=O)O)csc12 > 7.30
